Where do these numbers come from? They come from patent US7169931B2.

- studyTarget: human TPO receptor (Homo sapiens, UniProt P40238)
- Sequence (P40238 26-635): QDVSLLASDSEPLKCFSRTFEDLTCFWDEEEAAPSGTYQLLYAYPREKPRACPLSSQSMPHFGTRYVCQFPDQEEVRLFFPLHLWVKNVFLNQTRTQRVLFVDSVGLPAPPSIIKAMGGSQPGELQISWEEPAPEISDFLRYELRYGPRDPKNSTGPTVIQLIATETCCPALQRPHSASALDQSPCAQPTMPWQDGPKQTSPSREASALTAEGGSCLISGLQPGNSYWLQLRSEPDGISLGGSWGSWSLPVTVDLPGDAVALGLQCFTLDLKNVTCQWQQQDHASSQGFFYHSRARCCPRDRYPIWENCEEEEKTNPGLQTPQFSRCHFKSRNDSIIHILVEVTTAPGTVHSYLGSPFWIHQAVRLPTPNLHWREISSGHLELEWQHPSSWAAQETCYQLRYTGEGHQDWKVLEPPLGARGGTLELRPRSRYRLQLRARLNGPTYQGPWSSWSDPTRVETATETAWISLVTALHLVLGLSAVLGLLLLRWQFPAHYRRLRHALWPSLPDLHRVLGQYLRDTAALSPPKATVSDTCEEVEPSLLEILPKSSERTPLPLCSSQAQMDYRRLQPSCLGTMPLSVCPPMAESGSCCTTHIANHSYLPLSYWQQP
- experimentDescription: Thrombopoietic activity: proliferation of TPO dependent BaF/hTPOR cells (WST-1)
- settings: BaF/hTPOR cell line (BaF-B03 with human TPO receptor), without IL-3; 20 hours incubation + 4 hours WST-1, absorbance 450 nm; ED50 = half concentration of the concentration showing maximum thrombopoietic activity
- Procedure: BAF/hTPOR cells were maintained in RPMI medium and WEHI-3B conditioned medium as a source of murine interleukin-3 (IL-3). These cells were washed and resuspended in RPMI medium without a source of murine IL-3 and seeded into each well of 96-well microtiter plates at a density of 5×10^4 cells per well in the absence or presence of various concentration of hTPO or the present compound. […] The absorbance at 450 nm was measured.
observedProperty: EC50 (nM)

The cases that follow already have their EC50 on record.
# molecule, EC50, nM
rows = [
    ("COC(=O)C1CC(=O)c2cc(C(=O)Nc3nc(-c4ccc(Cl)c(Cl)c4)cs3)ccc2C1 (stereo not shown) [Compound A-7]", 250),
    ("O=C(Nc1nc(-c2cccc(OC(F)(F)F)c2F)cs1)c1ccc2c(c1)CCC(C(=O)O)C2 (stereo not shown) [Compound B-14]", 42),
    ("CCCCCCCCCCc1cccc(-c2csc(NC(=O)c3ccc4c(c3)CCC(C(=O)O)C4)n2)c1F (stereo not shown) [Compound B-28]", 23),
    ("O=C(Nc1nc(-c2ccc(F)c(F)c2)cs1)c1ccc2c(c1)CCC(C(=O)O)C2 (stereo not shown) [Compound B-7]", 280),
    ("CCCCc1cccc(-c2csc(NC(=O)c3ccc4c(c3)CCC(C(=O)O)C4)n2)c1F (stereo not shown) [Compound B-21]", 60),
    ("COC(=O)c1ccc2cc(C(=O)Nc3nc(-c4ccc(Cl)c(Cl)c4)cs3)ccc2c1 [Compound A-18]", 43),
    ("O=C(Nc1nc(-c2ccc(Cl)c(Cl)c2)cs1)c1ccc2c(c1)CCC(C(=O)O)C2 (stereo not shown) [Compound A-1]", 40),
    ("COC(=O)CC1Cc2ccc(C(=O)Nc3nc(-c4ccc(Cl)c(Cl)c4)cs3)cc2C1=O (stereo not shown) [Compound A-13]", 270),
    ("O=C(O)CC1Cc2ccc(C(=O)Nc3nc(-c4ccc(Cl)c(Cl)c4)cs3)cc2C1=O (stereo not shown) [Compound A-14]", 230),
    ("COC(c1cccc(-c2csc(NC(=O)c3ccc4c(c3)CCC(C(=O)O)C4)n2)c1F)C1CCCCC1 (stereo not shown) [Compound B-23]", 45),
]

P: Cc1c(C(=O)O)oc2ccc(C(=O)Nc3nc(-c4ccc(Cl)c(Cl)c4)cs3)cc12 [Compound C-5]
Q: O=C(Nc1nc(-c2cccc(C3CCOCC3)c2F)cs1)c1ccc2c(c1)CCC(C(=O)O)C2 (stereo not shown) [Compound B-13]
R: COC(=O)C1(F)CCc2cc(C(=O)Nc3nc(-c4ccc(Cl)c(Cl)c4)cs3)ccc2C1 (stereo not shown) [Compound A-5]
Input line: Descending sort on EC50 required. A complete answer lists every label in the requested sequence.
Output line: P, Q, R
(P: 880 nM, Q: 342 nM, R: 165 nM)
